# assaySystem: human GR (Homo sapiens, UniProt P04150)
# Sequence (P04150 1-777): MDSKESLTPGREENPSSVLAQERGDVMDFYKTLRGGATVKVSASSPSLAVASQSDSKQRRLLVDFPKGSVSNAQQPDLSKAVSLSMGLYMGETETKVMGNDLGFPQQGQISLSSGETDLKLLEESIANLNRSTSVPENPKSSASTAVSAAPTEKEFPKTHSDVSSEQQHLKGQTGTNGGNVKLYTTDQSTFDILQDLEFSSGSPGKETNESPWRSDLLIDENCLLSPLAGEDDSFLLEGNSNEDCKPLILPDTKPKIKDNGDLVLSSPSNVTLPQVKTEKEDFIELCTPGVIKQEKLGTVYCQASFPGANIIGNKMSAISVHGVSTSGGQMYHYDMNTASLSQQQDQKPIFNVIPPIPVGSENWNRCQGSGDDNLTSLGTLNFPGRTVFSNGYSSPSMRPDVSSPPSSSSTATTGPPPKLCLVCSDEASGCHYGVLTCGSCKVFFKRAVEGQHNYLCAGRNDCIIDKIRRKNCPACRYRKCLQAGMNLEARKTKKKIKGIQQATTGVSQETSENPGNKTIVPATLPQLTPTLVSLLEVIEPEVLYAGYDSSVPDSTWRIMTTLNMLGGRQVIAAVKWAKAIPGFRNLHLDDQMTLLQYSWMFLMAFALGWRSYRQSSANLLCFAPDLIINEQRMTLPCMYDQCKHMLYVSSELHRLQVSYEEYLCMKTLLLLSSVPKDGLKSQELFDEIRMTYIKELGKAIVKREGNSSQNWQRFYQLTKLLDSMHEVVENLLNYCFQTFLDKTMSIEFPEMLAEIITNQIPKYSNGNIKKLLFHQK
# assayProtocol: Transrepression Assay (GITAR), TNFα-β-lactamase reporter gene in U937 cells
# Assay type: cell-based
# Parameters: U937 cells contain an endogenous glucocorticoid receptor (GR); endogenous in cells; host or cells: U937 cells stably transfected with the TNF-α promoter/β-lactamase reporter only
# experimentalParameters: U-937; Table 1; U937 cells; activity repressed by 100 nM dexamethasone = 100%; read-out: Transrepression U937 Cells GITAR Emax (%)
observationType: Emax (%)
Entry rule: numbers only, all in %.

Can you share its Emax? I mean this compound: C[C@]12Cc3cnn(-c4ccc(F)cc4)c3C=C1CC[C@@]2(O)CCc1ccccc1C(=O)N1CC(=O)C1 [Example 156]
69

====

# assaySystem: glucocorticoid receptor (GR) (Homo sapiens, UniProt P04150)
# Construct: endogenous in cells; host or cells: HeLa (ATCC) cell lysate supernatant
# assayProtocol: Ligand binding assay (GR BIND), 3H-dexamethasone displacement, HeLa cell lysate
# experimentalParameters: Table 1; HeLa cell lysate, 3H-DEX
Reported Ki by item:
Record the result as a number with its unit.

INSERT INTO assay_data (compound, observationtype, result) VALUES
  ('CC(C)(C)CNC(=O)c1c(F)cccc1CC[C@]1(O)CCC2=Cc3c(cnn3-c3ccc(F)cc3)C[C@@]21C [Example 55]', 'Ki', '0.92 nM'),
  ('C[C@]12Cc3cnn(-c4ccc(F)cc4)c3C=C1CC[C@@]2(O)CCc1cccc(F)c1CO [Example 148]', 'Ki', '0.67 nM'),
  ('C[C@]12Cc3cnn(-c4ccc(F)cc4)c3C=C1CC[C@@]2(O)CCc1ccccc1CNS(=O)(=O)C1CC1 [Example 5]', 'Ki', '0.44 nM');

Can you share its Ki? I mean this compound: CC(=O)Cc1ccccc1CC[C@]1(O)CCC2=Cc3c(cnn3-c3ccc(F)cc3)C[C@@]21C [Example 157]
1.5 nM

Can you share its Ki? I mean this compound: CC(C)S(=O)(=O)NCc1c(F)cccc1CC[C@]1(O)CCC2=Cc3c(cnn3-c3ccc(F)cc3)C[C@@]21C [Example 83]
0.56 nM

Can you share its Ki? I mean this compound: C[C@]12Cc3cnn(-c4ccc(F)cc4)c3C=C1CC[C@@]2(O)/C=C/c1ccccc1S(N)(=O)=O [Example 160]
0.94 nM

====

Reported Emax by item:
# assaySystem: human GR (Homo sapiens, UniProt P04150)
# assayProtocol: Transrepression Assay (GITAR), TNFα-β-lactamase reporter gene in U937 cells
# Format: cell-based
# Design: U937 cells contain an endogenous glucocorticoid receptor (GR); endogenous in cells; host or cells: U937 cells stably transfected with the TNF-α promoter/β-lactamase reporter only
# experimentalParameters: U-937; Table 1; U937 cells; activity repressed by 100 nM dexamethasone = 100%; read-out: Transrepression U937 Cells GITAR Emax (%)
Entry rule: numbers only, all in %.

Known Emax results, listed for orientation:
INSERT INTO measurements (structurenotation, assaysystem, number) VALUES
  ('C[C@]12Cc3cnn(-c4ccc(F)cc4)c3C=C1CC[C@@]2(O)CCc1ccccc1C(=O)N1CCCCC1', 'human GR (Homo sapiens, UniProt P04150)', 70),
  ('CN(C)S(=O)(=O)c1ccccc1CC[C@]1(O)CCC2=Cc3c(cnn3-c3ccc(F)cc3)C[C@@]21C', 'human GR (Homo sapiens, UniProt P04150)', 72);

Turning now to a further compound:
Can you share its Emax? I mean this compound: `C[C@]12Cc3cnn(-c4ccc(F)cc4)c3C=C1CC[C@@]2(O)CCc1ccccc1C1(NS(=O)(=O)C2CC2)CC1`
72

====

# assaySystem: glucocorticoid receptor (GR) (Homo sapiens, UniProt P04150)
# Construct: endogenous in cells; host or cells: HeLa (ATCC) cell lysate supernatant
# assayProtocol: Ligand binding assay (GR BIND), 3H-dexamethasone displacement, HeLa cell lysate
# experimentalParameters: Table 1; HeLa cell lysate, 3H-DEX
observationType: log10 Ki (log10 of the value in nM)
Answers are given as log10 of Ki in nM.

Can you share its log10 Ki? I mean this compound: C[C@]12Cc3cnn(-c4ccc(F)cc4)c3C=C1CC[C@@]2(O)CCc1ccccc1NS(=O)(=O)C1CC1 [Example 15]
0.07

Can you share its log10 Ki? I mean this compound: Cc1ccc(C(N)=O)c(CC[C@]2(O)CCC3=Cc4c(cnn4-c4ccc(F)cc4)C[C@@]32C)c1 [Example 174]
0.68

Can you share its log10 Ki? I mean this compound: C[C@]12Cc3cnn(-c4ccc(F)cc4)c3C=C1CC[C@@]2(O)CCc1ccccc1CC(N)=O [Example 107]
0.37

Can you share its log10 Ki? I mean this compound: C=CCNC(=O)c1c(F)cccc1CC[C@]1(O)CCC2=Cc3c(cnn3-c3ccc(F)cc3)C[C@@]21C [Example 57]
-0.21

Can you share its log10 Ki? I mean this compound: CC(C)CNC(=O)c1c(F)cccc1CC[C@]1(O)CCC2=Cc3c(cnn3-c3ccc(F)cc3)C[C@@]21C [Example 61]
-0.24

====

# assaySystem: glucocorticoid receptor (GR) (Homo sapiens, UniProt P04150)
# Construct: endogenous in cells; host or cells: HeLa (ATCC) cell lysate supernatant
# assayProtocol: Ligand binding assay (GR BIND), 3H-dexamethasone displacement, HeLa cell lysate
# experimentalParameters: Table 1; HeLa cell lysate, 3H-DEX
observationType: pKi
Quick note: pKi values are minus log10 of concentrations in mol/L.

Known pKi results, listed for orientation:
INSERT INTO assay_data (molecule, assaysystem, number) VALUES
  ('C=CCNC(=O)c1ccccc1CC[C@]1(O)CCC2=Cc3c(cnn3-c3ccc(F)cc3)C[C@@]21C', 'glucocorticoid receptor (GR) (Homo sapiens, UniProt P04150)', 8.95),
  ('C[C@]12Cc3cnn(-c4ccc(F)cc4)c3C=C1CC[C@@]2(O)CCc1ccc(F)cc1C(N)=O', 'glucocorticoid receptor (GR) (Homo sapiens, UniProt P04150)', 8.53),
  ('CC(CNC(=O)c1ccccc1CC[C@]1(O)CCC2=Cc3c(cnn3-c3ccc(F)cc3)C[C@@]21C)C(F)(F)F (stereo partly shown)', 'glucocorticoid receptor (GR) (Homo sapiens, UniProt P04150)', 9.05);

Turning now to a further molecule:
Record CC(CNC(=O)c1c(F)cccc1CC[C@]1(O)CCC2=Cc3c(cnn3-c3ccc(F)cc3)C[C@@]21C)C(F)(F)F (stereo partly shown) : what is its pKi with glucocorticoid receptor (GR) (Homo sapiens, UniProt P04150)?
9.37
